- assay_target: CHK1 kinase (Homo sapiens (Human))
- Sequence (O14757 whole entry): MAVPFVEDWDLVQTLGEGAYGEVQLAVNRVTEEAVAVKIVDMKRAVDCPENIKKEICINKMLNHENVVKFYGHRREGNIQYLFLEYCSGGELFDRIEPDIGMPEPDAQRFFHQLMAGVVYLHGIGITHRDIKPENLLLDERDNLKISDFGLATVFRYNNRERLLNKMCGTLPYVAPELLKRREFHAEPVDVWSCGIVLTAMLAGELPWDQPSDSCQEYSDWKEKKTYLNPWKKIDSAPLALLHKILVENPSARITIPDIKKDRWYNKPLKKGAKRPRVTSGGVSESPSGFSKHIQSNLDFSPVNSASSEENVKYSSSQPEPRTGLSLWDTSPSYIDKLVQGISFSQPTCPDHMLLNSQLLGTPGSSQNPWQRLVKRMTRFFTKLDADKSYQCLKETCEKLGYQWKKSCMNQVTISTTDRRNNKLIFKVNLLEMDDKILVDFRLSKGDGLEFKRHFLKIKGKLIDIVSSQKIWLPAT
property_measured: pIC50
A value of pIC50 is the negative decimal logarithm of a concentration given in moles per litre.

Measured pIC50 of N#Cc1cnc(Nc2cc(-c3c(OCC4(F)CNC4)cnc4cccnc34)[nH]n2)cn1 : 9.22

Record N#Cc1cnc(Nc2cc(-c3c(O[C@H]4C[C@H](N)[C@H]5C[C@H]54)cnc4c3OCC4)[nH]n2)cn1 . Reported pIC50: 9.48

The compound identified as N#Cc1cnc(Nc2cc(-c3c(OCC4(CN)CC4)ccc4c3OCC4)[nH]n2)cn1 registered its pIC50 at 9.57

Value of measured pIC50 for the entry COC(=O)c1cnc(Nc2cc(-c3c(OCCCN)cnc4c3OCC4)[nH]n2)cn1 : 8.03

Measured pIC50 of CC1(COc2cnc3cccnc3c2-c2cc(Nc3cnc(C#N)cn3)n[nH]2)CNC1 : 9.41

Entry N#Cc1cnc(Nc2cc(-c3c(OCC4(CN)CC4)cnc4c3OCC4)[nH]n2)cn1 — recorded pIC50 = 9.57

For this compound ( N#Cc1cnc(Nc2cc(-c3c(OC[C@H]4CCNC4)cnc4c3OCC4)[nH]n2)cn1 ), measured pIC50 is 9.47

Measured pIC50 of N#Cc1cnc(Nc2cc(-c3c(OC[C@@H]4CNCCO4)cnc4cccnc34)[nH]n2)cn1 : 9.42

The compound identified as N#Cc1cnc(Nc2cc(-c3c(O[C@@H]4CCC[C@H](N)C4)cnc4cccnc34)[nH]n2)cn1 registered its pIC50 at 9.34

Short answer for N#Cc1cnc(Nc2cc(-c3c(O[C@@H]4CC[C@@H](N)C4)cnc4cccnc34)[nH]n2)cn1 : pIC50 was 9.31

Briefly, pIC50 measured for NCCCOc1cnc2c(c1-c1cc(Nc3cnc(Cl)cn3)n[nH]1)OCC2 : 9.48

Summary for this compound, N#Cc1cnc(Nc2cc(-c3c(O[C@@H]4CCC[C@H](N)C4)cnc4c3OCC4)[nH]n2)cn1 : pIC50 is 9.51

pIC50 for C=C(CN)COc1cnc2c(c1-c1cc(Nc3cnc(C#N)cn3)n[nH]1)OCC2 is 9.51

The recorded pIC50 for N#Cc1cnc(Nc2cc(-c3c(OCCCN)ccc4cccnc34)[nH]n2)cn1 is 9.43

Lab book: pIC50 of N#Cc1cnc(Nc2cc(-c3c(OCC4(F)CNC4)cnc4c3OCC4)[nH]n2)cn1 noted as 9.52

Notebook: C[C@@H](CN)COc1cnc2c(c1-c1cc(Nc3cnc(C#N)cn3)n[nH]1)OCC2 , pIC50 read as 9.37

The reported pIC50 of the compound N#Cc1cnc(Nc2cc(-c3c(OCCCN)ccc4ccoc34)[nH]n2)cn1 was 9.60

====

- Test system: ES-2 cells
- assay_overview: Cell growth suppression experiment (ES-2)
- Format: cell-based
- recorded_conditions: Homo sapiens, 48 h, cultured 2 days, CellTiter-Glo 3D
property_measured: IC50 (nM)
Entry rule: numbers only, all in nM.

// recorded IC50 for N#Cc1cnc(Nc2cc(-c3c(OCC4(CN)CC4)ccc4ccnn34)[nH]n2)cn1 : 3.7

Quick note, IC50 for C[C@@H](CN)COc1cnc2c(c1-c1cc(Nc3cnc(C#N)cn3)n[nH]1)OCC2 landed at 14.8

The reported IC50 of the molecule N#Cc1cnc(Nc2cc(-c3c(OCC4(F)CNC4)cnc4c3OCC4)[nH]n2)cn1 was 6.8

Form field IC50, entry N#Cc1cnc(Nc2cc(-c3c(OCC(F)(F)CN)cnc4cccnc34)[nH]n2)cn1 : 4.7

The molecule listed as N#Cc1cnc(Nc2cc(-c3c(OCC4(CN)CC4)ccc4ccoc34)[nH]n2)cn1 has a reported IC50 of 4.6

Per the record, CC1(COc2ccc3ccnn3c2-c2cc(Nc3cnc(C#N)cn3)n[nH]2)CNC1 has IC50 of 4.7

Short answer for COc1cccc(OCCCN)c1-c1cc(Nc2cnc(C#N)cn2)n[nH]1 [Prexasertib, reference compound] : IC50 was 8.55

Item: N#Cc1cnc(Nc2cc(-c3c(OCC4(CN)CC4)cnc4c3OCC4)[nH]n2)cn1 | IC50: 3.72

Recorded result, N#Cc1cnc(Nc2cc(-c3c(OCC4(CN)CC4)cnc4cccnc34)[nH]n2)cn1 , IC50: 6.6

Input N#Cc1cnc(Nc2cc(-c3c(OCC4(C(F)F)CNC4)cnc4c3OCC4)[nH]n2)cn1 . Output IC50: 13.7

Input N#Cc1cnc(Nc2cc(-c3c(OCC4(CN)CC4)ccc4c3OCC4)[nH]n2)cn1 . Output IC50: 9.1

Looking up N#Cc1cnc(Nc2cc(-c3c(OCCCN)cnc4cccnc34)[nH]n2)cn1 , I found its IC50 recorded as 7.02

Documented IC50 of CNCCCOc1cnc2c(c1-c1cc(Nc3cnc(C#N)cn3)n[nH]1)OCC2 : 8.5

Memo: CC1(COc2cnc3c(c2-c2cc(Nc4cnc(C#N)cn4)n[nH]2)OCC3)CNC1 , reported IC50: 7.2

For C=C(CN)COc1cnc2c(c1-c1cc(Nc3cnc(C#N)cn3)n[nH]1)OCC2 the molecule record lists IC50 as 13.8

IC50 reading for N#Cc1cnc(Nc2cc(-c3c(OCCCN)ccc4cccnc34)[nH]n2)cn1 : 4.9

Given item C[C@H](CN)COc1cnc2c(c1-c1cc(Nc3cnc(C#N)cn3)n[nH]1)OCC2 , the value recorded as its IC50 is 6.4

IC50 in this record for N#Cc1cnc(Nc2cc(-c3c(O[C@@H]4CCC[C@H](N)C4)cnc4cccnc34)[nH]n2)cn1 : 6

Reported IC50 ( N#Cc1cnc(Nc2cc(-c3c(O[C@@H]4CCC[C@H]4CN)cnc4cccnc34)[nH]n2)cn1 ) = 5.5

Measured IC50 of N#Cc1cnc(Nc2cc(-c3c(OCC4(F)CNC4)cnc4cccnc34)[nH]n2)cn1 : 8

The reported value for N#Cc1cnc(Nc2cc(-c3c(OCC4(CN)CC4(F)F)ccc4ccoc34)[nH]n2)cn1 (stereo not drawn) in terms of IC50 is 16.3

Measured IC50, CC1(COc2ccc3c(c2-c2cc(Nc4cnc(C#N)cn4)n[nH]2)OCC3)CNC1 : 6.7

Briefly, IC50 measured for NCCCOc1cnc2c(c1-c1cc(Nc3cnc(Cl)cn3)n[nH]1)OCC2 : 21.5

Query CC1(COc2cnc3cccnc3c2-c2cc(Nc3cnc(C#N)cn3)n[nH]2)CNC1 yields IC50 of 14.8

IC50 in this record for N#Cc1cnc(Nc2cc(-c3c(OCCCN)ccc4ccnn34)[nH]n2)cn1 : 6.24

Looking up Cc1nc2ccc(OCCCN)c(-c3cc(Nc4cnc(C#N)cn4)n[nH]3)c2o1 , I found its IC50 recorded as 489

# IC50 of N#Cc1cnc(Nc2cc(-c3c(O[C@@H]4CC[C@@H](N)C4)cnc4c3OCC4)[nH]n2)cn1 = 11.8

molecule N#Cc1cnc(Nc2cc(-c3c(OC[C@@H]4CNCCO4)cnc4cccnc34)[nH]n2)cn1 , IC50 observed: 23.2

The molecule listed as N#Cc1cnc(Nc2cc(-c3c(OCCCN)ccc4c3OCC4)[nH]n2)cn1 shows IC50 equal to 4

Query N#Cc1cnc(Nc2cc(-c3c(OCCCN)cnc4ccnn34)[nH]n2)cn1 yields IC50 of 469

Value of measured IC50 for the entry N#Cc1cnc(Nc2cc(-c3c(OCCCN)cnc4c3OCC4)[nH]n2)cn1 : 20

The value of IC50 measured for the molecule N#Cc1cnc(Nc2cc(-c3c(O[C@@H]4CC[C@@H](N)C4)cnc4cccnc34)[nH]n2)cn1 turned out to be 6.8
